Where do the numbers come from? From patent US20250304596A1.

# target-under-test: HiBit-BRM fusion protein (Homo sapiens)
# Construct: expressed in transfected cells
# Sequence (P51531 whole entry, the tested form may be a part): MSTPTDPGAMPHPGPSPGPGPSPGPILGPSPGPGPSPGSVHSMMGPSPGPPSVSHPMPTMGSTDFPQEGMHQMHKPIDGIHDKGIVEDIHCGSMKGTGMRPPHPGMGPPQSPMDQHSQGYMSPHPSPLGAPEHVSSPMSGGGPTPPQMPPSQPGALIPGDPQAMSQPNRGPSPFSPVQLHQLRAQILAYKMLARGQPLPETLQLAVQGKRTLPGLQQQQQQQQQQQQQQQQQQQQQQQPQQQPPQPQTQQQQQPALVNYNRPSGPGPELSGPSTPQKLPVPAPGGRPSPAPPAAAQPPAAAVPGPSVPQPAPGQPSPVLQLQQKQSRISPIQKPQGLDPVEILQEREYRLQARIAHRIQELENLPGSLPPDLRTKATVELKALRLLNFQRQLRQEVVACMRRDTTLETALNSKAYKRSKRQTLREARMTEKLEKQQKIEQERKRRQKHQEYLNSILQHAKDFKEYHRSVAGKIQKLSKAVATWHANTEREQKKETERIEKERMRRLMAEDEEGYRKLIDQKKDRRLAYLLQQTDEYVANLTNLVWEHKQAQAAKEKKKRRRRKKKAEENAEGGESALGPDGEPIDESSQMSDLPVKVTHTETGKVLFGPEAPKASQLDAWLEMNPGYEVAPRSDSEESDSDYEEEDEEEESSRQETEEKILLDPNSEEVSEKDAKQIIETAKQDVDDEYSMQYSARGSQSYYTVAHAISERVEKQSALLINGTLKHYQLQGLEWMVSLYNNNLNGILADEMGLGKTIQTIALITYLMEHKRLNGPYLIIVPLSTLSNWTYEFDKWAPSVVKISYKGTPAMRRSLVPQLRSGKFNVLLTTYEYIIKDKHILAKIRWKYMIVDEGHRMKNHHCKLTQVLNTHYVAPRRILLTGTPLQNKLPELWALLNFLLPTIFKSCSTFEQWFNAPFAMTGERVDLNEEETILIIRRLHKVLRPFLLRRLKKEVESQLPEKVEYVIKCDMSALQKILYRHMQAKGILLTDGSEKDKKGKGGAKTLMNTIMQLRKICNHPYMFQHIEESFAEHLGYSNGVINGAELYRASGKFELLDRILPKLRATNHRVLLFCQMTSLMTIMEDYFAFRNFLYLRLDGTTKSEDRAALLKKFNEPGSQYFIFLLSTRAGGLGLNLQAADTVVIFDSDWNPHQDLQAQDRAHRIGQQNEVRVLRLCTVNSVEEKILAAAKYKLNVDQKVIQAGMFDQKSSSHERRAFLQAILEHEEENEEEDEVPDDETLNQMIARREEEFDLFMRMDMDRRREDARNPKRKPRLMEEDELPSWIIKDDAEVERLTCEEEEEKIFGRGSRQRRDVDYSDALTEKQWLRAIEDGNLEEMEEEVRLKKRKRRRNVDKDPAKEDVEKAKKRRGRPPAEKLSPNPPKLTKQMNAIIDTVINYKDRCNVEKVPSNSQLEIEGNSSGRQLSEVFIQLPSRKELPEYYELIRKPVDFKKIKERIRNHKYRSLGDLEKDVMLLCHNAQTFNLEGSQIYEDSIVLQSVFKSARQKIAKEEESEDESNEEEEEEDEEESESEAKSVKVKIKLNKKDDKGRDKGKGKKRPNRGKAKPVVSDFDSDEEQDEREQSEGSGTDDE
# assay-explanation: HiBiT-BRM cell-based degradation assay (Nano-Glo HiBiT Lytic Detection, 24 h)
# experimental-setup: stable HeLa cell line expressing HiBiT-BRM, read-out: BRM HiBit Degradation IC50
measured-attribute: DC50

mol-smiles	target-under-test	measured-attribute	result
COc1nc(N2CCC(c3sc4nnc(-c5ccccc5O)cc4c3C)CC2)ccc1-c1cc([C@H](C(=O)N2C[C@H](O)C[C@H]2C(=O)N[C@@H](C)c2ccc(-c3scnc3C)cc2)C(C)C)on1	HiBit-BRM fusion protein (Homo sapiens)	DC50	> 10 nM
Cc1ncsc1-c1ccc([C@H](C)NC(=O)[C@@H]2C[C@@H](O)CN2C(=O)[C@@H](c2cc(C3CCN(c4ncc(-c5sc6nnc(-c7ccccc7O)cc6c5C)cn4)CC3)no2)C(C)C)cc1	HiBit-BRM fusion protein (Homo sapiens)	DC50	> 1000 nM
Cc1ncsc1-c1ccc([C@H](C)NC(=O)[C@@H]2C[C@@H](O)CN2C(=O)[C@@H](c2cc(-c3cnc(N4CC5(CC(c6sc7nnc(-c8ccccc8O)cc7c6C)C5)C4)nc3)no2)C(C)C)cc1	HiBit-BRM fusion protein (Homo sapiens)	DC50	< 10 nM
Cc1ncsc1-c1ccc([C@H](C)NC(=O)[C@@H]2C[C@@H](O)CN2C(=O)[C@@H](c2cc(-c3ccc(N4CCC(c5sc6nnc(-c7ccccc7O)cc6c5C)CC4)c(F)c3)no2)C(C)C)cc1	HiBit-BRM fusion protein (Homo sapiens)	DC50	< 10 nM
Cc1ncsc1-c1ccc([C@H](C)NC(=O)[C@@H]2C[C@@H](O)CN2C(=O)[C@@H](c2cc(-c3ccnc(N4CC[C@@H](c5cc6nnc(-c7ccccc7O)cc6s5)C4)n3)no2)C(C)C)cc1	HiBit-BRM fusion protein (Homo sapiens)	DC50	> 10 nM
